Target: T1, native membrane bound porcine CD163 on primary porcine alveolar macrophages (porcine, UniProt Q2VL90 47-1115)
T1 construct: also called PAM CD163-WT; pPAM
T1 sequence: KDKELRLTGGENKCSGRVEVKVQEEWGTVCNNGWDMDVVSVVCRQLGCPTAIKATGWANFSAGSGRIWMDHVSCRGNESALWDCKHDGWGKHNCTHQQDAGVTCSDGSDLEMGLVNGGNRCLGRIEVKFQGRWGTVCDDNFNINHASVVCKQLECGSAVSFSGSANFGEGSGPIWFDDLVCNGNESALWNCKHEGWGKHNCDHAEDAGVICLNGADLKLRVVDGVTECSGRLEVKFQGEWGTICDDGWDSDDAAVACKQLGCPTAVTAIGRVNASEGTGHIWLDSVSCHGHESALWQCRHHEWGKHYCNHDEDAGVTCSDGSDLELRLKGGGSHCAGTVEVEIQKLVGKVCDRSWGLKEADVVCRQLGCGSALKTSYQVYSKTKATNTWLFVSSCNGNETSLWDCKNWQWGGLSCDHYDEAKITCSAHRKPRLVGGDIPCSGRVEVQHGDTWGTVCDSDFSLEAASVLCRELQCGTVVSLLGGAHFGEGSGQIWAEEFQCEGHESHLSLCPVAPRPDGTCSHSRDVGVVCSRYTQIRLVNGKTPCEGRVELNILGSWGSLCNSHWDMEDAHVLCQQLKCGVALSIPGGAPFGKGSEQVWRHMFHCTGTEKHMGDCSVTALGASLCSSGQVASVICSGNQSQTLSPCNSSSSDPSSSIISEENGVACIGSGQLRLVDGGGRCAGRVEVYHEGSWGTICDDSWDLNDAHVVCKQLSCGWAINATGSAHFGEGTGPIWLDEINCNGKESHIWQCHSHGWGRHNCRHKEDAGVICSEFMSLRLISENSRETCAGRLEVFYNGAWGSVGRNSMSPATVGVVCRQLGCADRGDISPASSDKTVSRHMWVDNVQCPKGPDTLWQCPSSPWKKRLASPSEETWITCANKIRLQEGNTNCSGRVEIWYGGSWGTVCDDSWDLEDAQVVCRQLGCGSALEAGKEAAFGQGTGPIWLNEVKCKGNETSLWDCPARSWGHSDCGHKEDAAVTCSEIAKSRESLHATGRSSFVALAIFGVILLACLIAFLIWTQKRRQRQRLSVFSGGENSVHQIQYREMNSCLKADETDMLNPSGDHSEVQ
Test: flow cytometry, PAM CD163-WT, RT

{"BINDER": "VHH 018 (3E01) (VHH, Llama single domain antibody; also called 49(#18); VHCDR3 49(#18); not shown: tags: c-myc tag in periplasmic extract (ELISA, FACS); FLAG and His tags in purified VHH (SPR, infection assays)) VHH: QVQLQESGGGLVQVGGSLRLSCVASGRAPSRYVMGWFRQAPGQEREFVAGIAWSGRAPYADSVKGRSTISRDNAKNTVYLQMNSLKPEDTGVYYCAGGEGAIRWTTLDAYDYWGQGTQVTVSS", "% Binding": "1.74%"}
{"BINDER": "VHH 016 (2H11) (VHH, Llama single domain antibody; also called 77(#16); VHCDR3 77(#16); not shown: tags: c-myc tag in periplasmic extract (ELISA, FACS); FLAG and His tags in purified VHH (SPR, infection assays)) VHH: EVQLVESGGGLVQAGGSLRLSCAASGRTFAPGSMGWFRQAPGKEREFVAAHRWSGSAYYADYADSVEGRFTISRDYAKNMVYLQMNSLKPGDTAVYYCAAGVGSAAQYTYWGRGTQVTVSS", "% Binding": "1.59%"}
{"BINDER": "VHH 015 (2G01) (VHH, Llama single domain antibody; also called 150(#15); VHCDR3 150(#15); not shown: tags: c-myc tag in periplasmic extract (ELISA, FACS); FLAG and His tags in purified VHH (SPR, infection assays)) VHH: QVQLVESGGGLVQAGDTLRLSCTASGRTFSSYSMGWFRQAPGKEREFVAAITWNGYITNYADSVKGRFTISRDNTKNTVFLQMNSLKPEETAVYYCAATTFSTTSPISRTYNYWGPGTQVTVSS", "% Binding": "20.4%"}
{"BINDER": "VHH 019 (3E11) (VHH, Llama single domain antibody; also called 47(#19); VHCDR3 47(#19); not shown: tags: c-myc tag in periplasmic extract (ELISA, FACS); FLAG and His tags in purified VHH (SPR, infection assays)) VHH: QVQLQESGGGLVQVGSSLRLSCVTSGRTPSRYVMGWFRQAPGQEREFVAAISWSGRAPYADSVKGRFTISRDNAKNTVYLQMNSLKPEDTGVYYCAGGEGAIKWTTLDAYDYWGQGTQVTVSS", "% Binding": "59.5%"}
